Source: patent US20240342318A1

biological target: EGFR (WT) (Homo sapiens); construct: The EGFR constructs span amino acids R669 to V1011 of the EGFR protein; T7 phage display fusion (kinase-tagged T7 phage) or DNA tag for qPCR; made in house; host or cells: E. coli (BL21-derived) infected with T7 phage for most assays; remaining kinases in HEK-293; test: In vitro kinase binding assay (phage/DNA-tagged kinase, affinity beads, qPCR), wild-type EGFR
Sequence (P00533 669-1011): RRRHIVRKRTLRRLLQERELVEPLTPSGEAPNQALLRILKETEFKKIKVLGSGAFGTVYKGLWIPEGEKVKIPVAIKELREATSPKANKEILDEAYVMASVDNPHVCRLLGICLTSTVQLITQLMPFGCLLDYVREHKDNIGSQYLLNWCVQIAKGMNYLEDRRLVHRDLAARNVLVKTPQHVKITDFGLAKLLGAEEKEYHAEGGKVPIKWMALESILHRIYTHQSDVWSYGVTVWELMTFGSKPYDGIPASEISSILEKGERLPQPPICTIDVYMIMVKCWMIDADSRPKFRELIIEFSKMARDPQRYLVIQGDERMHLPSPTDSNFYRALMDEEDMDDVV
# Kd per entry
Measure: Kd

INSERT INTO measurements (substance_smiles, measure, val) VALUES
  ('C=CC(=O)N[C@@H]1CN(c2nc(Nc3cn(CCCCCNC(=O)CN4CCN5CCN6CCN(CC4)CC(=O)[O][Lu]([O]C(=O)C5)[O]C(=O)C6)nc3OC)c3ncn(C(C)(C)C)c3n2)C[C@H]1F', 'Kd', '0.002 to 0.1 µM'),
  ('C=CC(=O)N1C[C@H](COc2nc(Nc3cnn(CCCCCNC(=O)CN4CCN5CCN6CCN(CC4)CC(=O)[O][Lu]([O]C(=O)C5)[O]C(=O)C6)c3)nc3[nH]cc(Cl)c23)[C@@H](OC)C1', 'Kd', '0.1 to 1 µM'),
  ('C=CC(=O)N[C@@H]1CN(c2nc(Nc3cn(CCCCCCCNC(=O)CN4CCN5CCN6CCN(CC4)CC(=O)[O][Lu]([O]C(=O)C5)[O]C(=O)C6)nc3OC)c3ncn(C)c3n2)C[C@H]1F', 'Kd', '0.002 to 0.1 µM'),
  ('C=CC(=O)N[C@@H]1CN(c2nc(Nc3cn(CCCCCNC(=O)CN4CCN5CCN6CCN(CC4)CC(=O)[O][Lu]([O]C(=O)C5)[O]C(=O)C6)nc3OC)c3ncn(C)c3n2)C[C@H]1F', 'Kd', '0.002 to 0.1 µM'),
  ('C=CC(=O)N[C@@H]1CN(c2nc(Nc3cn(CCCCCNC(=O)CN4CCN5CCN6CCN(CC4)CC(=O)[O][Lu]([O]C(=O)C5)[O]C(=O)C6)nc3CC)c3ncn(C(C)(C)C)c3n2)C[C@H]1F', 'Kd', '1 to 2.5 µM'),
  ('C=CC(=O)N[C@@H]1CN(c2nc(Nc3cn(CCCNC(=O)CN4CCN5CCN6CCN(CC4)CC(=O)[O][Lu]([O]C(=O)C5)[O]C(=O)C6)nc3OC)c3ncn(C)c3n2)C[C@H]1F', 'Kd', '0.002 to 0.1 µM');

###

# reported pKd; entries follow
target: EGFR (L858R, T790M) (Homo sapiens, UniProt P00533, L858R/T790M); construct: The EGFR constructs span amino acids R669 to V1011 of the EGFR protein; T7 phage display fusion (kinase-tagged T7 phage) or DNA tag for qPCR; made in house; host or cells: E. coli (BL21-derived) infected with T7 phage for most assays; remaining kinases in HEK-293; test: In vitro kinase binding assay (phage/DNA-tagged kinase, affinity beads, qPCR), mutant EGFR; conditions: mutant EGFR (T790M, L858R) construct R669 to V1011; 11-point 3-fold dilution series; 1 hour at room temperature; read-out: EGFR (L858R, T790M) Kd
Sequence (P00533 669-1011 T790M/L858R): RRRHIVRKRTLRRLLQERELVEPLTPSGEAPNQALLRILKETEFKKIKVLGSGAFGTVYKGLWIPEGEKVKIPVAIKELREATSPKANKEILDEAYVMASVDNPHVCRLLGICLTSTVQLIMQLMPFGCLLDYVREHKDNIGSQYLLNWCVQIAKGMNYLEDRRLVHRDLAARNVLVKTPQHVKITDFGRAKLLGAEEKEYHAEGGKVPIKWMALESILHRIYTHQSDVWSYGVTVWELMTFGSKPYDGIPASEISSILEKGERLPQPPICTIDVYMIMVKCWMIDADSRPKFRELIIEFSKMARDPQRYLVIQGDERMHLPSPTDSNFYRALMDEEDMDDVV
pKd: −log10 of the molar value.
Measure: pKd

INSERT INTO results (substance_smiles, measure, val) VALUES
  ('C=CC(=O)N[C@@H]1CN(c2nc(Nc3cn(CCCCCNC(=O)CN4CCN(CC(=O)O)CCN(CC(=O)O)CCN(CC(=O)O)CC4)nc3OC)c3ncn(C)c3n2)C[C@H]1F', 'pKd', '> 9.00'),
  ('C=CC(=O)N[C@@H]1CN(c2nc(Nc3cn(CCCNC(=O)CN4CCN(CC(=O)O)CCN(CC(=O)O)CCN(CC(=O)O)CC4)nc3OC)c3ncn(C)c3n2)C[C@H]1F', 'pKd', '> 9.00'),
  ('C=CC(=O)N1C[C@H](COc2nc(Nc3cnn(CCCCCNC(=O)CN4CCN(CC(=O)O)CCN(CC(=O)O)CCN(CC(=O)O)CC4)c3)nc3[nH]cc(Cl)c23)[C@@H](OC)C1', 'pKd', '7.60 to 9.00');

###

target: EGFR (L858R, T790M) (Homo sapiens, UniProt P00533, L858R/T790M); construct: The EGFR constructs span amino acids R669 to V1011 of the EGFR protein; T7 phage display fusion (kinase-tagged T7 phage) or DNA tag for qPCR; made in house; host or cells: E. coli (BL21-derived) infected with T7 phage for most assays; remaining kinases in HEK-293; assay: In vitro kinase binding assay (phage/DNA-tagged kinase, affinity beads, qPCR), mutant EGFR; conditions: mutant EGFR (T790M, L858R) construct R669 to V1011; 11-point 3-fold dilution series; 1 hour at room temperature; read-out: EGFR (L858R, T790M) Kd
Measure: Kd

INSERT INTO measurements (substance_smiles, val) VALUES
  ('C=CC(=O)N[C@@H]1CN(c2nc(Nc3cn(CCCCCNC(=O)CN4CCN(CC(=O)O)CCN(CC(=O)O)CCN(CC(=O)O)CC4)nc3CC)c3ncn(C(C)(C)C)c3n2)C[C@H]1F', '1 to 25 nM'),
  ('C=CC(=O)N[C@@H]1CN(c2nc(Nc3cn(CCCCCCCNC(=O)CN4CCN(CC(=O)O)CCN(CC(=O)O)CCN(CC(=O)O)CC4)nc3OC)c3ncn(C)c3n2)C[C@H]1F', '< 1 nM'),
  ('C=CC(=O)N[C@@H]1CN(c2nc(Nc3cn(CCCCCNC(=O)CN4C[C@H](CC)N(CC(=O)O)C[C@H](CC)N(CC(=O)O)C[C@H](CC)N(CC(=O)O)C[C@@H]4CC)nc3CC)c3ncn(C(C)(C)C)c3n2)C[C@H]1F', '1 to 25 nM'),
  ('C=CC(=O)N[C@@H]1CN(c2nc(Nc3cn(CCCCCNC(=O)CN4CCN(CC(=O)O)CCN(CC(=O)O)CCN(CC(=O)O)CC4)nc3OC)c3ncn(C(C)(C)C)c3n2)C[C@H]1F', '1 to 25 nM');

###

biological target: EGFR (L858R, T790M) (Homo sapiens, UniProt P00533, L858R/T790M); construct: The EGFR constructs span amino acids R669 to V1011 of the EGFR protein; T7 phage display fusion (kinase-tagged T7 phage) or DNA tag for qPCR; made in house; host or cells: E. coli (BL21-derived) infected with T7 phage for most assays; remaining kinases in HEK-293; test: In vitro kinase binding assay (phage/DNA-tagged kinase, affinity beads, qPCR), mutant EGFR; conditions: ratio of Kd EGFR (WT) to Kd EGFR (L858R, T790M)
Measure: Binding Affinity ratio of WT/DM

INSERT INTO results (substance_smiles, val) VALUES
  ('C=CC(=O)N[C@@H]1CN(c2nc(Nc3cn(CCCNC(=O)CN4CCN(CC(=O)O)CCN(CC(=O)O)CCN(CC(=O)O)CC4)nc3OC)c3ncn(C)c3n2)C[C@H]1F', 'A (4 < A ≤ 25)'),
  ('C=CC(=O)N[C@@H]1CN(c2nc(Nc3cn(CCCCCNC(=O)CN4C[C@H](CC)N(CC(=O)O)C[C@H](CC)N(CC(=O)O)C[C@H](CC)N(CC(=O)O)C[C@@H]4CC)nc3CC)c3ncn(C(C)(C)C)c3n2)C[C@H]1F', 'B (25 < B ≤ 100)'),
  ('C=CC(=O)N[C@@H]1CN(c2nc(Nc3cn(CCCCCNC(=O)CN4CCN(CC(=O)O)CCN(CC(=O)O)CCN(CC(=O)O)CC4)nc3OC)c3ncn(C(C)(C)C)c3n2)C[C@H]1F', 'B (25 < B ≤ 100)'),
  ('C=CC(=O)N[C@@H]1CN(c2nc(Nc3cn(CCCCCCCNC(=O)CN4CCN5CCN6CCN(CC4)CC(=O)[O][Lu]([O]C(=O)C5)[O]C(=O)C6)nc3OC)c3ncn(C)c3n2)C[C@H]1F', 'A (4 < A ≤ 25)');
